Consider the following compounds; for each one, report its cytotoxicity at 10 µM.
Assay: Toxicity liver stage against HepG2, at 10uM
Format: cell-based
Parameters: test concentration 10 uM, cell line HepG2-A16-CD81EGFP
Settings: human, HepG2-A16-CD81EGFP cells; read-out: INHIBITION
Numbers only, in %.

Solved cases (6 shown):
Cc1ccc2oc(N3CCN(CC(=O)NC(C)C)CC3)nc2c1: -10.9
Cc1ccccc1-n1c(O)cc(C)c(C#N)c1=O: -1.54
CCCc1cncnc1N1CCC(NCCc2nc(O)cc(O)n2)CC1: 5.99
O=C(N1CCCC(n2cncn2)C1)C1(c2cccc(F)c2)CCCC1 (stereo not drawn): 3.39
COc1ccc(CNCC2CC2)cc1F: -22
CCn1cnc2c(c(Br)nn2C)c1=O: 4.37

Hi! Can you tell me cytotoxicity at 10 µM for each of these compounds?
1. Cc1cncc(C(=O)N2Cc3ccccc3C3(CCN(C)CC3)C2)c1
2. CCS(=O)(=O)N1CCc2ccc(NC(=O)Nc3cccc(F)c3)cc21

1: 4.37; 2: 38.4

Hi! Can you tell me cytotoxicity at 10 µM for each of these compounds?
1. O=C([C@H]1C[C@H]2OCC[C@H]2N(Cc2ccoc2)C1)N1CCCO1
2. Cc1c(C2CCCN(C(=O)OC(C)(C)C)C2)n2c(nc1=O)CCC2 (stereo not drawn)

1: -69.8; 2: -16

Cited source for all entries: ChEMBL document CHEMBL4513216
